Hello, the source for this data is paper PMC11272598, in case you need it.

test.protocol: Plasma PK profile in rats
Assay type: in vivo, Wistar rats
applied.conditions: female, Wistar, rat, plasma, IV 10 mg/kg, mean (% CV), read-out: Vss
Description: The plasma PK profile of RG7774 was assessed in adult male C57BL/6J mice and female Wistar rats (Charles River, Cologne, Germany) housed in a controlled environment (temperature, humidity, and 12 h light/dark cycle) with unrestricted access to food and water. […] In the first study (animal permission #1857), mice received RG7774 as an intravenous (IV) bolus at 1 mg/kg (n = 6) or as an oral (PO) dose at 3 mg/kg (n = 5). […] RG7774 concentrations in plasma were determined using LC-MS/MS. […]
property.measured: Vd (L/kg)

line_notation=Cn1nnnc1Cn1nnc2c(N3CC[C@H](O)C3)nc(C(C)(C)C)nc21 endpoint_unit=L/kg measured_result=0.442
